- system: LIMK2 (human) (UniProt P53671)
- Sequence (P53671 whole entry, looked up): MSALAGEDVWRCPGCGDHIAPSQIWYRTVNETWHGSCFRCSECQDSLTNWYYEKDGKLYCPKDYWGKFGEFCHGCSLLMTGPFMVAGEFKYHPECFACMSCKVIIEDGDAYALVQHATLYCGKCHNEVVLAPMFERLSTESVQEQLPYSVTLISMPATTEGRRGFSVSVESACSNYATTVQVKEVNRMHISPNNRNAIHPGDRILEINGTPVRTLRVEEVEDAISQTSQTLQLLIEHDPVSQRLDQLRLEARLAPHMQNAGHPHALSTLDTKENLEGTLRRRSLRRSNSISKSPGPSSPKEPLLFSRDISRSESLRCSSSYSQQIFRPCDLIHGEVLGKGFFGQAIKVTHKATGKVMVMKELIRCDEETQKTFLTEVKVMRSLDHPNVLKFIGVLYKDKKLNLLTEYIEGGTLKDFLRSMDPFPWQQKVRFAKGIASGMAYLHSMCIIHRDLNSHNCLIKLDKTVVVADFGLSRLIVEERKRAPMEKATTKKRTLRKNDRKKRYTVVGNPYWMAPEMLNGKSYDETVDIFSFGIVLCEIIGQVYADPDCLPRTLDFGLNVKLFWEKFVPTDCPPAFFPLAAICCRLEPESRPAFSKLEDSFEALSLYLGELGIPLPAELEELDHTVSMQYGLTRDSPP
- test_details: KINOMEscan competition binding
- stated_conditions: compound 10.0 µM
Entries and their kinase still bound, per cent of control values follow.

>  <smiles_data>
CN(C)C/C=C/C(=O)Nc1ccc(C(=O)Nc2cccc(Nc3nccc(-c4cccnc4)n3)c2)cc1

>  <system>
LIMK2 (human) (UniProt P53671)

>  <kinase still bound, per cent of control (%)>
92

$$$$
>  <smiles_data>
CCN(CC)CCCCNc1ncc2c(n1)N(C)C(=O)N(c1c(Cl)c(OC)cc(OC)c1Cl)C2

>  <system>
LIMK2 (human) (UniProt P53671)

>  <kinase still bound, per cent of control (%)>
100

$$$$
>  <smiles_data>
CNC(=O)c1cc(Oc2ccc(NC(=O)Nc3ccc(Cl)c(C(F)(F)F)c3)cc2)ccn1

>  <system>
LIMK2 (human) (UniProt P53671)

>  <kinase still bound, per cent of control (%)>
57

$$$$
>  <smiles_data>
COc1cc2ncnc(-n3nc(-c4ccccn4)nc3N)c2cc1OC

>  <system>
LIMK2 (human) (UniProt P53671)

>  <kinase still bound, per cent of control (%)>
20

$$$$
>  <smiles_data>
CNC(=O)c1ccc(Nc2cc(Nc3ccccc3S(=O)(=O)C(C)C)c3cc[nH]c3n2)nc1

>  <system>
LIMK2 (human) (UniProt P53671)

>  <kinase still bound, per cent of control (%)>
100

$$$$
>  <smiles_data>
O=C1NC(=O)/C(=C/c2ccc3nccc(-c4ccncc4)c3c2)S1

>  <system>
LIMK2 (human) (UniProt P53671)

>  <kinase still bound, per cent of control (%)>
100

$$$$
>  <smiles_data>
C=CC(=O)Nc1ccc(CN(C(=O)Nc2c(Cl)c(OC)cc(OC)c2Cl)c2cc(Nc3ccc(N4CCN(C)CC4)cc3)ncn2)cc1

>  <system>
LIMK2 (human) (UniProt P53671)

>  <kinase still bound, per cent of control (%)>
100

$$$$
>  <smiles_data>
COc1ccc(N(C(=O)Oc2c(C)cccc2C)c2ccnc(Nc3ccc(N4CCN(C)CC4)cc3)n2)c(OC)c1

>  <system>
LIMK2 (human) (UniProt P53671)

>  <kinase still bound, per cent of control (%)>
0

$$$$
>  <smiles_data>
C[C@@H](Oc1cc(-c2cnn(C3CCNCC3)c2)cnc1N)c1c(Cl)ccc(F)c1Cl

>  <system>
LIMK2 (human) (UniProt P53671)

>  <kinase still bound, per cent of control (%)>
4.6

$$$$

====

- system: UniProt:O14578
- Sequence (O14578 whole entry, looked up): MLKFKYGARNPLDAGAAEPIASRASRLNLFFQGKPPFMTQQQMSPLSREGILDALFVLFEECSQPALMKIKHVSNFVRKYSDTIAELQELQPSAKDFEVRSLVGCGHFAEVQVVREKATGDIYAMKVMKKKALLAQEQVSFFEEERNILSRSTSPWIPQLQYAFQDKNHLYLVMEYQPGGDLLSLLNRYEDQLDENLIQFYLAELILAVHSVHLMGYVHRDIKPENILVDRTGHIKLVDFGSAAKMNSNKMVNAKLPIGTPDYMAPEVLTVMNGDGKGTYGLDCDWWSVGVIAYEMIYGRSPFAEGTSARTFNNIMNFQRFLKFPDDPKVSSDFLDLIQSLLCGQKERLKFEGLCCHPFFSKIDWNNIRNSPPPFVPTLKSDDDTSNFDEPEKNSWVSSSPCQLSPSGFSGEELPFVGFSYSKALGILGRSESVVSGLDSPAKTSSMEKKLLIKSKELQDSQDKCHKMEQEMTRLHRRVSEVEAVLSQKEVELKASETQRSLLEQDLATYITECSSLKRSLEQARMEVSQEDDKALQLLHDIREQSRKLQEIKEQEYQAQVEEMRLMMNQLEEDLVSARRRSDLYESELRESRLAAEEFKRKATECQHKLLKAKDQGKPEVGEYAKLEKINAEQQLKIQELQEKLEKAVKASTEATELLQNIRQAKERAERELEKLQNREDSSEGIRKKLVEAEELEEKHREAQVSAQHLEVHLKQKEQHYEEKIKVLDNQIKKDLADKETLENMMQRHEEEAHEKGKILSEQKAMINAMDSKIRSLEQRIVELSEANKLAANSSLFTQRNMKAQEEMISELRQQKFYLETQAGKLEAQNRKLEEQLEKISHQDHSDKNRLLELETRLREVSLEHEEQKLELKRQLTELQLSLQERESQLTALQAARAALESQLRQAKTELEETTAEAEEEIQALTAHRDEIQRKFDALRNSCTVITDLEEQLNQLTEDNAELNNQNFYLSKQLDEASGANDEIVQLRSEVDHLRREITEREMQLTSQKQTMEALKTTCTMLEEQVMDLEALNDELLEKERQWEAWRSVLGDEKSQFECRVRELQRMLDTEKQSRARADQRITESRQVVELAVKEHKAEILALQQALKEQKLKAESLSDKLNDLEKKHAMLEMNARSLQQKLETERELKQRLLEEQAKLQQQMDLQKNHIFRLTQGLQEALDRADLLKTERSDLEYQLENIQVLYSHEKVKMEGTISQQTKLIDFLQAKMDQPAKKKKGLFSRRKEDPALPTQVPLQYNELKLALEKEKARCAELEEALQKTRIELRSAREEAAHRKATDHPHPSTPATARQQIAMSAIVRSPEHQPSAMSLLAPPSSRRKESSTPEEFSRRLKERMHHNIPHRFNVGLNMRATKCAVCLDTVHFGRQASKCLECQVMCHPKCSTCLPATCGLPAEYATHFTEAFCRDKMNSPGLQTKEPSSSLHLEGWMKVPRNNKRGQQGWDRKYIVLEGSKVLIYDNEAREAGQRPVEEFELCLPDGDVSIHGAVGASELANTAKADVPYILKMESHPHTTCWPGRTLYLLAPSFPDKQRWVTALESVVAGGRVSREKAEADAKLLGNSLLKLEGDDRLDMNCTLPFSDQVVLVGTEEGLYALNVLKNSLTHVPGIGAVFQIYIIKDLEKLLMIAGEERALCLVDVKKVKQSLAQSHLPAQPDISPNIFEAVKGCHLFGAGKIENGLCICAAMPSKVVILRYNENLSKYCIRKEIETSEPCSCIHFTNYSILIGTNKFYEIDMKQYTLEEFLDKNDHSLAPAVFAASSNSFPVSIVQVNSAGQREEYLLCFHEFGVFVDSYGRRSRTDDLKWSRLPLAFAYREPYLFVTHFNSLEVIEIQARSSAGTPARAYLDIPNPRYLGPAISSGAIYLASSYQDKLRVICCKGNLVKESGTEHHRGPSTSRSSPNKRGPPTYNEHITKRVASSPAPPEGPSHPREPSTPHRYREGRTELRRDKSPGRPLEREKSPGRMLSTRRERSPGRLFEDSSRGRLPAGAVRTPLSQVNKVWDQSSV
- test_details: KINOMEscan competition binding
- stated_conditions: compound 10.0 µM

>  <smiles_data>
COc1cc2ncnc(-n3nc(-c4ccccn4)nc3N)c2cc1OC

>  <kinase still bound, per cent of control, %>
30

$$$$
>  <smiles_data>
C[C@@H](Oc1cc(-c2cnn(C3CCNCC3)c2)cnc1N)c1c(Cl)ccc(F)c1Cl

>  <kinase still bound, per cent of control, %>
62

$$$$
>  <smiles_data>
CNC(=O)c1ccc(Nc2cc(Nc3ccccc3S(=O)(=O)C(C)C)c3cc[nH]c3n2)nc1

>  <kinase still bound, per cent of control, %>
100

$$$$
>  <smiles_data>
C=CC(=O)Nc1ccc(CN(C(=O)Nc2c(Cl)c(OC)cc(OC)c2Cl)c2cc(Nc3ccc(N4CCN(C)CC4)cc3)ncn2)cc1

>  <kinase still bound, per cent of control, %>
100

$$$$
>  <smiles_data>
COc1cc(C(=O)N2CCC(N3CCN(C)CC3)CC2)ccc1Nc1ncc2c(n1)N(C)c1ccccc1C(=O)N2C

>  <kinase still bound, per cent of control, %>
99

$$$$
>  <smiles_data>
O=C1NC(=O)/C(=C/c2ccc3nccc(-c4ccncc4)c3c2)S1

>  <kinase still bound, per cent of control, %>
4.4

$$$$
>  <smiles_data>
CCN(CC)CCCCNc1ncc2c(n1)N(C)C(=O)N(c1c(Cl)c(OC)cc(OC)c1Cl)C2

>  <kinase still bound, per cent of control, %>
100

$$$$
>  <smiles_data>
CS(=O)(=O)N1CCN(Cc2cc3nc(-c4cccc5[nH]ncc45)nc(N4CCOCC4)c3s2)CC1

>  <kinase still bound, per cent of control, %>
100

$$$$
>  <smiles_data>
CN(C)C/C=C/C(=O)Nc1ccc(C(=O)Nc2cccc(Nc3nccc(-c4cccnc4)n3)c2)cc1

>  <kinase still bound, per cent of control, %>
38

$$$$
>  <smiles_data>
C=CC(=O)Nc1cc(-n2c(=O)ccc3cnc4ccc(-c5cn[nH]c5)cc4c32)ccc1C

>  <kinase still bound, per cent of control, %>
42

$$$$
>  <smiles_data>
O=c1cc(N2CCOCC2)oc2c(-c3cccc4c3sc3ccccc34)cccc12

>  <kinase still bound, per cent of control, %>
85

$$$$
>  <smiles_data>
O=C(Nc1cccc(Nc2ncc(Br)c(NCCc3cnc[nH]3)n2)c1)N1CCCC1

>  <kinase still bound, per cent of control, %>
0.75

$$$$
>  <smiles_data>
N#CCNC(=O)c1ccc(-c2ccnc(Nc3ccc(N4CCOCC4)cc3)n2)cc1

>  <kinase still bound, per cent of control, %>
0.35

$$$$
>  <smiles_data>
CNC(=O)c1cc(Oc2ccc(NC(=O)Nc3ccc(Cl)c(C(F)(F)F)c3)cc2)ccn1

>  <kinase still bound, per cent of control, %>
17

$$$$
>  <smiles_data>
CCN(CC)CCCCNc1ncc2cc(-c3cc(OC)cc(OC)c3)c(NC(=O)NC(C)(C)C)nc2n1

>  <kinase still bound, per cent of control, %>
100

$$$$
>  <smiles_data>
Cc1n[nH]c2ccc(-c3cncc(OC[C@@H](N)Cc4c[nH]c5ccccc45)c3)cc12

>  <kinase still bound, per cent of control, %>
0.2

$$$$
>  <smiles_data>
COCC(=O)NC/C=C/c1ccc2ncnc(Nc3ccc(Oc4ccc(C)nc4)c(C)c3)c2c1

>  <kinase still bound, per cent of control, %>
76

$$$$
>  <smiles_data>
COc1cc(N2CCN(C)CC2)ccc1Nc1ncc2c(n1)N(C)c1ccccc1C(=O)N2C

>  <kinase still bound, per cent of control, %>
100

$$$$
>  <smiles_data>
NC(=O)Nc1cc(-c2cccc(F)c2)sc1C(=O)N[C@@H]1CCCNC1

>  <kinase still bound, per cent of control, %>
0.2

$$$$
>  <smiles_data>
COc1ccc(N(C(=O)Oc2c(C)cccc2C)c2ccnc(Nc3ccc(N4CCN(C)CC4)cc3)n2)c(OC)c1

>  <kinase still bound, per cent of control, %>
3.8

$$$$
>  <smiles_data>
CCN1CCN(C(=O)Cc2ccc(Nc3ncc(F)c(Nc4ccc(C(=O)Nc5ccccc5Cl)cc4)n3)cc2)CC1

>  <kinase still bound, per cent of control, %>
27

$$$$

====

- system: PRKAA2 (human) (UniProt P54646)
- Sequence (P54646 whole entry, looked up): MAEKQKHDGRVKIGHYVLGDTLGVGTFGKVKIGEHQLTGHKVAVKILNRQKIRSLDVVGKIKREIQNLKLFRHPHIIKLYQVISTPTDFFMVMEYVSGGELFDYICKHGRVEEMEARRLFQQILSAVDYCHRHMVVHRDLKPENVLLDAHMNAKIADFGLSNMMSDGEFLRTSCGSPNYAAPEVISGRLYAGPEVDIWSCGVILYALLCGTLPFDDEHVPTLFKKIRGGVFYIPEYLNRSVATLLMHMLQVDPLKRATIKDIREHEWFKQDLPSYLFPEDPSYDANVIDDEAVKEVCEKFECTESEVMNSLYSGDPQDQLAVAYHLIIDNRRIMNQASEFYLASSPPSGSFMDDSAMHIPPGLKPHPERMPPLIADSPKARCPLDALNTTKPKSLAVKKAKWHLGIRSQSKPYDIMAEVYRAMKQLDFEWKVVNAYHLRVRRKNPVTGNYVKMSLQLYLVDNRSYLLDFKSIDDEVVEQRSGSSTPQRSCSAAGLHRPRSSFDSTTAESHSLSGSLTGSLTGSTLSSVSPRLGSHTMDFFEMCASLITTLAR
- test_details: KINOMEscan competition binding
- stated_conditions: compound 10.0 µM
Could you mark each record YES if its kinase still bound, per cent of control falls strictly under 90%, and NO if it equals or exceeds it?

>  <smiles_data>
O=c1cc(N2CCOCC2)oc2c(-c3cccc4c3sc3ccccc34)cccc12

>  <classification>
NO

$$$$
>  <smiles_data>
C[C@@H](Oc1cc(-c2cnn(C3CCNCC3)c2)cnc1N)c1c(Cl)ccc(F)c1Cl

>  <classification>
YES

$$$$
>  <smiles_data>
CCN(CC)CCCCNc1ncc2c(n1)N(C)C(=O)N(c1c(Cl)c(OC)cc(OC)c1Cl)C2

>  <classification>
NO

$$$$
>  <smiles_data>
CCN1CCN(C(=O)Cc2ccc(Nc3ncc(F)c(Nc4ccc(C(=O)Nc5ccccc5Cl)cc4)n3)cc2)CC1

>  <classification>
YES

$$$$
>  <smiles_data>
O=C1NC(=O)/C(=C/c2ccc3nccc(-c4ccncc4)c3c2)S1

>  <classification>
NO

$$$$
>  <smiles_data>
C=CC(=O)Nc1cc(-n2c(=O)ccc3cnc4ccc(-c5cn[nH]c5)cc4c32)ccc1C

>  <classification>
YES

$$$$
>  <smiles_data>
COc1cc2ncnc(-n3nc(-c4ccccn4)nc3N)c2cc1OC

>  <classification>
YES

$$$$
>  <smiles_data>
CNC(=O)c1ccc(Nc2cc(Nc3ccccc3S(=O)(=O)C(C)C)c3cc[nH]c3n2)nc1

>  <classification>
YES

$$$$
>  <smiles_data>
N#CCNC(=O)c1ccc(-c2ccnc(Nc3ccc(N4CCOCC4)cc3)n2)cc1

>  <classification>
YES

$$$$
>  <smiles_data>
CCN(CC)CCCCNc1ncc2cc(-c3cc(OC)cc(OC)c3)c(NC(=O)NC(C)(C)C)nc2n1

>  <classification>
NO

$$$$
>  <smiles_data>
CNC(=O)c1cc(Oc2ccc(NC(=O)Nc3ccc(Cl)c(C(F)(F)F)c3)cc2)ccn1

>  <classification>
YES

$$$$
>  <smiles_data>
NC(=O)Nc1cc(-c2cccc(F)c2)sc1C(=O)N[C@@H]1CCCNC1

>  <classification>
YES

$$$$
>  <smiles_data>
COc1ccc(N(C(=O)Oc2c(C)cccc2C)c2ccnc(Nc3ccc(N4CCN(C)CC4)cc3)n2)c(OC)c1

>  <classification>
YES

$$$$
>  <smiles_data>
CN(C)C/C=C/C(=O)Nc1ccc(C(=O)Nc2cccc(Nc3nccc(-c4cccnc4)n3)c2)cc1

>  <classification>
NO

$$$$
>  <smiles_data>
O=C(Nc1cccc(Nc2ncc(Br)c(NCCc3cnc[nH]3)n2)c1)N1CCCC1

>  <classification>
YES

$$$$
>  <smiles_data>
C=CC(=O)Nc1ccc(CN(C(=O)Nc2c(Cl)c(OC)cc(OC)c2Cl)c2cc(Nc3ccc(N4CCN(C)CC4)cc3)ncn2)cc1

>  <classification>
NO

$$$$

Value source: the kinase profiling compilation of Christmann-Franck et al. (2016)
